These data points were gathered from paper PMC8343220.

Target: human α1B‐adrenoceptor (Homo sapiens)
Construct: expressed in transfected cells; host or cells: CHO-K1
Experiment: Intracellular free calcium mobilization, CHO‐α1B cells
Assay type: cell-based
Details: CHO‐α1B cells; maximal response as % of 10 µM ionomycin response
MEASURE_NAME: Intracellular calcium release % ionomycin (%)
Numbers only here, please. The scale is %.

Please supply the value of reported Intracellular calcium release % ionomycin for the item CC(C)(C)NCC(O)c1ccc(O)c(CO)c1 (stereo not drawn) [Salbutamol]
58.4

Identify measured Intracellular calcium release % ionomycin corresponding to C[C@H](N)[C@H](O)c1cccc(O)c1 [Metaraminol]
60.1

* * *

Target: human α1B‐adrenoceptor (Homo sapiens)
Construct: expressed in transfected cells; host or cells: CHO-K1
Sequence (P35368 1-520): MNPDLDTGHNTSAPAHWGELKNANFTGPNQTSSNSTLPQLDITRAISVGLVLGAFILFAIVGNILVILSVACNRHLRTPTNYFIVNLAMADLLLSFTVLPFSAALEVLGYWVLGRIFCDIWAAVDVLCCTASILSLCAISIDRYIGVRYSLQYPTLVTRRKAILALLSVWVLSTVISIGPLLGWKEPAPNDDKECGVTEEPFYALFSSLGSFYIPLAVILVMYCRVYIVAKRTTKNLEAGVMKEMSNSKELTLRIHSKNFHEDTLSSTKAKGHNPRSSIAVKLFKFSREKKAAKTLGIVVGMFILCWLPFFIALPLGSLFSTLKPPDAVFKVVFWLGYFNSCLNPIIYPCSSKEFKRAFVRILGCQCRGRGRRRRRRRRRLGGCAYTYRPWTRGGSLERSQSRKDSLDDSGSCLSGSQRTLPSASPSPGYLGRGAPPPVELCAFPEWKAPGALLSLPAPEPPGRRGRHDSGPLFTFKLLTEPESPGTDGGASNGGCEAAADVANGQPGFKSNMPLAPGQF
Assay: ERK1/2‐phosphorylation (Surefire Alphascreen), CHO‐α1B cells
Assay type: cell-based
Catalogue of ERK1/2‐phosphorylation % PDBu readings, one per entry.

Recorded ERK1/2‐phosphorylation % PDBu, per entry:
COMPOUND	MEASURE_NAME	MEASUREMENT
CN[C@@H](C)[C@H](O)c1ccccc1 [Epdedrine]	ERK1/2‐phosphorylation % PDBu	19.1 ± 4.0%
CC(N)C(O)c1ccc(O)c(O)c1 (stereo not drawn) [α‐Methylnorepinephrine]	ERK1/2‐phosphorylation % PDBu	90.6 ± 4.4%
Cc1cccc(Cc2c[nH]cn2)c1C [Detomidine]	ERK1/2‐phosphorylation % PDBu	31.5 ± 5.4%
CC(CCc1ccccc1)NCC(O)c1ccc(O)c(C(N)=O)c1 (stereo not shown) [Labetolol]	ERK1/2‐phosphorylation % PDBu	22.9 ± 6.3%

Look up human α1B‐adrenoceptor (Homo sapiens) data: ERK1/2‐phosphorylation % PDBu of CN1C[C@H](C(=O)N[C@]2(C)O[C@@]3(O)[C@@H]4CCCN4C(=O)[C@H](Cc4ccccc4)N3C2=O)C[C@@H]2c3cccc4[nH]cc(c34)C[C@H]21 [Dihydroergotamine] , then report it.
50.1 ± 4.8%

Return reported ERK1/2‐phosphorylation % PDBu for target or system human α1B‐adrenoceptor (Homo sapiens), item CNC[C@H](O)c1ccc(O)c(O)c1 [Adrenaline] .
76.6 ± 9.0%

Report value only: ERK1/2‐phosphorylation % PDBu, human α1B‐adrenoceptor (Homo sapiens), Cc1cccc(C)c1N=C1NCCCS1 [Xylazine]
26.4 ± 5.8%
